measurement_type: pKi
// pKi is dimensionless: -log10 of concentration (M)

Measured on Serine/threonine-protein kinase pim-2 (Homo sapiens), `Nc1ccc(-c2ccccc2C(F)(F)F)nc1C(=O)Nc1cnccc1N1CCC[C@H](N)C1` has a documented pKi of 8.15

Measured on Serine/threonine-protein kinase pim-2 (Homo sapiens), `Nc1ccc(-c2c(F)cccc2F)nc1C(=O)Nc1cnccc1N1CC[C@@H](O)[C@H](N)C1` has a documented pKi of 11.22

Measured on Serine/threonine-protein kinase pim-2 (Homo sapiens), `COc1ccccc1-c1ccc(N)c(C(=O)Nc2cnccc2N2CCC[C@H](N)C2)n1` has a documented pKi of 8.10

Measured on Serine/threonine-protein kinase pim-2 (Homo sapiens), `Nc1nccc(-c2ccc(N)c(C(=O)Nc3cnccc3N3CCC[C@H](N)C3)n2)n1` has a documented pKi of 7.80

Measured on Serine/threonine-protein kinase pim-2 (Homo sapiens), `Nc1nccnc1C(=O)Nc1cnccc1N1CCC[C@H](N)C1` has a documented pKi of 7.15

* * *

Would you mind telling me the reported Ki of each entry?

Measured on Serine/threonine-protein kinase pim-1 (Homo sapiens), `O=C(Nc1ccccc1N1CCCCC1)c1ncc[nH]1` has a documented Ki of > 12.5 µM

Measured on Serine/threonine-protein kinase pim-1 (Homo sapiens), `CC(=O)Nc1nc(C(=O)Nc2cncnc2N2CCCCC2)cs1` has a documented Ki of > 12.5 µM

Measured on Serine/threonine-protein kinase pim-1 (Homo sapiens), `CC(=O)Nc1nc(C(=O)Nc2cnc(N)nc2N2CCCCC2)cs1` has a documented Ki of > 12.5 µM

Measured on Serine/threonine-protein kinase pim-1 (Homo sapiens), `O=C(Nc1ccccc1N1CCCCC1)c1cscn1` has a documented Ki of 1.8 µM

Reference source: ChEMBL document CHEMBL3102815
